# tested on: recombinant human 11β-HSD type 1 enzyme (Homo sapiens)
# Sequence (P28845 whole entry): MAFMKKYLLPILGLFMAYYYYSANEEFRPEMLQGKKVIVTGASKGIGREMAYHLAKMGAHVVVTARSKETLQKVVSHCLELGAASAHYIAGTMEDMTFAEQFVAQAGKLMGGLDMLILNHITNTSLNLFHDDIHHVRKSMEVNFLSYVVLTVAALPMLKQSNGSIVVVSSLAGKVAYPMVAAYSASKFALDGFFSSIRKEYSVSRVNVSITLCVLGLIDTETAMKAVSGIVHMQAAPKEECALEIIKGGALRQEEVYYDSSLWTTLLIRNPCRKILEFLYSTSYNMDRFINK
# test: 11β-HSD Type 1 Enzyme Assay (NADPH fluorescence)
# reported conditions: three hour incubation, read-out: Human 11-βHSD1 IC50
pIC50: −log10 of the molar value.
readout kind: pIC50

[1] O=C(c1ccc(-c2cc(Cl)c(CN3CCC4(CCCCC4)C3=O)c(Cl)c2)cc1)N1CCN(CCF)CC1
[2] O=C1N(Cc2c(Cl)cc(-c3ccc(F)cc3)cc2Cl)CCC12CCc1n[nH]cc1C2 (centres unmarked)
Task: Please choose the item with the lower pIC50 value from this pair: 1 and 2 Mark your selection by writing its label.
Result: 1
(1: 6.05, 2: 6.26)
